Tested on: MARIMO
Test Name: cell viability relative to vehicle control; higher = less cytotoxic;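 note: after 48 h exposure read by CellTiter-Glo luminescence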
Conditions: 10 µM; SRSF2 genotype: SRSF2 wt/wt
Please go through the items and note down their cell viability.
Your answer should be a plain number; it is taken to be in %.

-- ask Answer with reported cell viability of CCCC(=O)OCOC(=O)C1=C(C)NC(C)=C(C(=O)OC)C1c1cccc(Cl)c1Cl (centres undefined) [Clevidipine Butyrate]
-- reply 107

-- ask Answer with reported cell viability of CC(C)=CCC[C@@H](C)CC=O [Citronellal]
-- reply 102

-- ask Answer with reported cell viability of CCCCCCOC(=O)NC(=N)c1ccc(NCc2nc3cc(C(=O)N(CCC(=O)OCC)c4ccccn4)ccc3n2C)cc1 [BIBR-1048 (Dabigatran)]
-- reply 55

-- ask Answer with reported cell viability of O=Cc1ccc(CO)o1 [5-Hydroxymethylfurfural]
-- reply 95.1

----------
Tested on: MOLM14
Test Name: cell viability relative to vehicle control; higher = less cytotoxic
Conditions: 10 µM; SRSF2 genotype: SRSF2 wt/wt
Metric: cell viability (%)
Your answer should be a plain number; it is taken to be in %.

-- ask Answer with reported cell viability of CC(C)=CCC[C@](C)(O[C@@H]1O[C@H](CO)[C@@H](O)[C@H](O)[C@H]1O)[C@H]1CC[C@]2(C)[C@@H]1[C@H](O)C[C@@H]1[C@@]3(C)CC[C@H](O)C(C)(C)[C@@H]3[C@@H](O[C@@H]3O[C@H](CO)[C@@H](O)[C@H](O)[C@H]3O[C@@H]3OC[C@@H](O)[C@H](O)[C@H]3O)C[C@]12C [Notoginsenoside R1]
-- reply 103

-- ask Answer with reported cell viability of CC(=O)OCC=Cc1ccccc1 [Cinnamyl acetate]
-- reply 102

-- ask Answer with reported cell viability of "O=c1oc2cc(O)ccc2s1"
-- reply 103

-- ask Answer with reported cell viability of "CC(C)n1nccc1-c1ncccc1COc1cccc(O)c1C=O"
-- reply 94

-- ask Answer with reported cell viability of "O=C(/C=C/c1ccc(O)cc1)c1ccc(O)cc1O"
-- reply 74.7

-- ask Answer with reported cell viability of "COC(=O)c1ccc2c(c1)[nH]c1ncnc(NCCCN3CCCCC3)c12"
-- reply 15.7

-- ask Answer with reported cell viability of NC(=O)C1CCCc2c1[nH]c1ccc(Cl)cc21 (stereo not given)
-- reply 99.6

-- ask Answer with reported cell viability of "COc1ccc(Oc2cc(NCCC(F)(F)F)c3ncc(-c4ccc(C(=O)NC5CC5)c(C)c4)n3n2)c(F)c1F"
-- reply 42.6

-- ask Answer with reported cell viability of COc1ccc(C[C@H](N)C(=O)N[C@H]2[C@@H](O)[C@H](n3cnc4c(N(C)C)ncnc43)O[C@@H]2CO)cc1 [Puromycin 2HCl]
-- reply 0.31

-- ask Answer with reported cell viability of O=C1C(=C(O)C=Cc2ccc(O)cc2)C(O)=C([C@@H]2O[C@H](CO)[C@@H](O)[C@H](O)[C@H]2O)C(=O)C1(O)[C@@H]1O[C@H](CO)[C@@H](O)[C@H](O)[C@H]1O (stereo not given in full) [Hydroxy safflor yellow A]
-- reply 87.7

-- ask Answer with reported cell viability of "C[C@H]1COC2=C1C(=O)C(=O)c1c2ccc2c1CCCC2(C)C"
-- reply 69.2

-- ask Answer with reported cell viability of "Nc1ccc(C(=O)NCC(=O)O)cc1"
-- reply 97.4

-- ask Answer with reported cell viability of "CCCCCCOC(=O)NC(=N)c1ccc(NCc2nc3cc(C(=O)N(CCC(=O)OCC)c4ccccn4)ccc3n2C)cc1"
-- reply 0.53

-- ask Answer with reported cell viability of "COc1ccc(-n2nc(C(N)=O)c3c2C(=O)N(c2ccc(N4CCCCC4=O)cc2)CC3)cc1"
-- reply 105

-- ask Answer with reported cell viability of "O=[N+]([O-])c1ccc(Sc2cccc[n+]2[O-])c2nonc12"
-- reply 0.25

----------
System: MARIMO
Test Name: cell viability relative to vehicle control; higher = less cytotoxic
Conditions: 10 µM; SRSF2 genotype: SRSF2 P95H/wt
Metric: cell viability (%)
Your answer should be a plain number; it is taken to be in %.

-- ask Answer with reported cell viability of "O=c1cc(-c2ccc(O)cc2)oc2c([C@@H]3O[C@H](CO)[C@@H](O)[C@H](O)[C@H]3O)c(O)cc(O)c12"
-- reply 108

-- ask Answer with reported cell viability of CC(C)=CCC[C@](C)(O[C@@H]1O[C@H](CO[C@@H]2OC[C@@H](O)[C@H](O)[C@H]2O)[C@@H](O)[C@H](O)[C@H]1O)[C@H]1CC[C@]2(C)[C@@H]1[C@H](O)C[C@@H]1[C@@]3(C)CC[C@H](O[C@@H]4O[C@H](CO)[C@@H](O)[C@H](O)[C@H]4O[C@@H]4O[C@H](CO)[C@@H](O)[C@H](O)[C@H]4O)C(C)(C)[C@@H]3CC[C@]12C [Ginsenoside Rb3]
-- reply 103

-- ask Answer with reported cell viability of "N=C1S/C(=C\c2ccc(-c3ccc4c(c3)C(=O)NC4=O)o2)C(=O)N1c1ccc(Br)cc1"
-- reply 99

-- ask Answer with reported cell viability of "CCOc1cc(N2CCC(O)CC2)ccc1Nc1ncc2c(n1)N(C)c1ccccc1C(=O)N2C"
-- reply 73

-- ask Answer with reported cell viability of "CC(=O)[C@@]1(O)CC[C@H]2[C@@H]3C[C@H](C)C4=CC(=O)CC[C@]4(C)[C@H]3CC[C@@]21C"
-- reply 74

----------
System: K562
Test Name: cell viability relative to vehicle control; higher = less cytotoxic
Conditions: 10 µM; SRSF2 genotype: SRSF2 wt/wt
Structures can show the parent of a compound that is named as a salt.
Exam item: assign label 1 to entries whose cell viability is below 80% and label 0 to entries at or above 80%. Note that a value of exactly 80% receives label 0.

-- ask Strictly below 80% in cell viability? CCN[C@H]1CN(CCCOC)S(=O)(=O)c2sc(S(N)(=O)=O)cc21 [Brinzolamide]
-- reply label 0

-- ask Strictly below 80% in cell viability? Cn1cc(C[C@@H](N)C(=O)O)c2ccccc21 [Indoximod (NLG-8189)]
-- reply label 0

-- ask Strictly below 80% in cell viability? CNCCc1ccccn1 [Betahistine 2HCl]
-- reply label 0

-- ask Strictly below 80% in cell viability? Cc1cc(Nc2cc(Cl)nc(Oc3ccc([N+](=O)[O-])cc3)n2)n[nH]1 [Autophinib]
-- reply label 1

-- ask Strictly below 80% in cell viability? "CCc1cnn2c(NCc3ccc[n+]([O-])c3)cc(N3CCCC[C@H]3CCO)nc12"
-- reply label 1

-- ask Strictly below 80% in cell viability? "Cc1c(C(=O)NN2CCCCC2)nn(-c2ccc(Cl)cc2Cl)c1-c1ccc(Cl)cc1"
-- reply label 1

-- ask Strictly below 80% in cell viability? OCCc1ccc(O)c(O)c1 [Hydroxytyrosol]
-- reply label 0

-- ask Strictly below 80% in cell viability? Nc1ccn([C@@H]2O[C@H](CO)[C@@H](O)[C@H]2O)c(=O)n1 [Cytidine]
-- reply label 0

-- ask Strictly below 80% in cell viability? CC[C@@H]1[C@H]2CCCCN3[C@H]2[C@H](C[C@H]3[C@@H]2C[C@H](C)C(=O)O2)[C@@H]2[C@H]1OC(=O)[C@H]2C [Tuberostemonine]
-- reply label 0

-- ask Strictly below 80% in cell viability? COc1nc(N)nc2c1ncn2[C@@H]1O[C@H](CO)[C@@H](O)[C@@H]1O [Nelarabine (Arranon)]
-- reply label 0

-- ask Strictly below 80% in cell viability? "CCOc1cn(-c2ccc(F)cc2C)nc1C(=O)Nc1ccc(Oc2ccnc3cc(OC)c(OC)cc23)c(F)c1"
-- reply label 1

-- ask Strictly below 80% in cell viability? CNC[C@@H](O)c1ccc(O)c(O)c1 [L-Adrenaline (Epinephrine)]
-- reply label 0

-- ask Strictly below 80% in cell viability? N#Cc1ccc(-c2csc(NN=C3CCCC3)n2)cc1 [Remodelin]
-- reply label 0

-- ask Strictly below 80% in cell viability? O=C1C[C@@H](c2ccc(O)c(O)c2)Oc2cc(O)cc(O)c21 [Eriodictyol]
-- reply label 0

-- ask Strictly below 80% in cell viability? CO[C@@H]1[C@@H](OC(N)=O)[C@@H](O)[C@H](Oc2ccc3c(O)c(NC(=O)c4ccc(O)c(CC=C(C)C)c4)c(=O)oc3c2C)OC1(C)C [Novobiocin sodium (Albamycin)]
-- reply label 0

-- ask Strictly below 80% in cell viability? "C=CC(=O)Nc1ccc2ncnc(Nc3cccc(Br)c3)c2c1"
-- reply label 1

-- ask Strictly below 80% in cell viability? CC(COc1ccccc1)N(CCCl)Cc1ccccc1 (stereo not given) [Phenoxybenzamine HCl]
-- reply label 1

-- ask Strictly below 80% in cell viability? CC(C)n1cnc2c(NCCc3ccc(O)cc3)nc(-c3csc4ccccc34)nc21 [StemRegenin 1]
-- reply label 1

-- ask Strictly below 80% in cell viability? COc1ccc(-c2cc(=O)c3c(O)c(OC)c(O)c(OC)c3o2)cc1 [Lysionotin]
-- reply label 0

-- ask Strictly below 80% in cell viability? CCOc1nc2cccc(C(=O)O)c2n1Cc1ccc(-c2ccccc2-c2noc(=O)[nH]2)cc1 [Azilsartan (TAK-536)]
-- reply label 0

-- ask Strictly below 80% in cell viability? Nc1ncnc2c1ncn2[C@@H]1O[C@H](COP(=O)(O)O)[C@@H](O)[C@H]1O [5'-Adenylic acid]
-- reply label 0

-- ask Strictly below 80% in cell viability? CC(C)=C1CC[C@@H](C)CC1=O [Pulegone]
-- reply label 0

-- ask Strictly below 80% in cell viability? CC(C)(Sc1cc(C(C)(C)C)c(O)c(C(C)(C)C)c1)Sc1cc(C(C)(C)C)c(O)c(C(C)(C)C)c1 [Probucol]
-- reply label 0

-- ask Strictly below 80% in cell viability? COc1cccc(-c2cc(NCc3ccc4c(c3)OCO4)nc(N)n2)c1 [Wnt agonist 1]
-- reply label 1

-- ask Strictly below 80% in cell viability? Oc1ccc(OC2CCCCO2)cc1 (stereo not given) [Deoxyarbutin]
-- reply label 0

-- ask Strictly below 80% in cell viability? N[C@@H]1CCCCN(c2c(F)cc3c(=O)c(C(=O)O)cn(C4CC4)c3c2Cl)C1 [Besifloxacin HCl (Besivance)]
-- reply label 0

-- ask Strictly below 80% in cell viability? COc1ccc([C@@H]2OC[C@H]3[C@@H]2CO[C@@H]3c2ccc3c(c2)OCO3)cc1OC [Fargesin]
-- reply label 0

-- ask Strictly below 80% in cell viability? COc1cc2nc(N3CCN(C(=O)c4ccco4)CC3)nc(N)c2cc1OC [Prazosin HCl]
-- reply label 0

-- ask Strictly below 80% in cell viability? "COc1cc(OC)c(/C=C/S(=O)(=O)Cc2ccc(OC)c(NCC(=O)O)c2)c(OC)c1"
-- reply label 1

-- ask Strictly below 80% in cell viability? NC(=O)c1cn(Cc2c(F)cccc2F)nn1 [Rufinamide (Banzel)]
-- reply label 0

-- ask Strictly below 80% in cell viability? "O=[N+]([O-])c1cn2c(n1)OC[C@@H](OCc1ccc(OC(F)(F)F)cc1)C2"
-- reply label 0

-- ask Strictly below 80% in cell viability? CCCOc1ccc2[nH]c(NC(=O)OC)nc2c1 [Oxibendazole]
-- reply label 1

-- ask Strictly below 80% in cell viability? COc1ccc2[nH]c(=O)oc2c1 [Coixol]
-- reply label 0

-- ask Strictly below 80% in cell viability? C[C@H](CCC(=O)O)[C@H]1CC[C@H]2[C@@H]3[C@H](O)C[C@@H]4C[C@H](O)CC[C@]4(C)[C@H]3CC[C@]12C [Chenodeoxycholic acid]
-- reply label 0

Value source: the supplement of paper PMC10981050
